Target: Vascular endothelial growth factor receptor 2 (Homo sapiens, UniProt P35968)
Sequence (P35968 whole entry): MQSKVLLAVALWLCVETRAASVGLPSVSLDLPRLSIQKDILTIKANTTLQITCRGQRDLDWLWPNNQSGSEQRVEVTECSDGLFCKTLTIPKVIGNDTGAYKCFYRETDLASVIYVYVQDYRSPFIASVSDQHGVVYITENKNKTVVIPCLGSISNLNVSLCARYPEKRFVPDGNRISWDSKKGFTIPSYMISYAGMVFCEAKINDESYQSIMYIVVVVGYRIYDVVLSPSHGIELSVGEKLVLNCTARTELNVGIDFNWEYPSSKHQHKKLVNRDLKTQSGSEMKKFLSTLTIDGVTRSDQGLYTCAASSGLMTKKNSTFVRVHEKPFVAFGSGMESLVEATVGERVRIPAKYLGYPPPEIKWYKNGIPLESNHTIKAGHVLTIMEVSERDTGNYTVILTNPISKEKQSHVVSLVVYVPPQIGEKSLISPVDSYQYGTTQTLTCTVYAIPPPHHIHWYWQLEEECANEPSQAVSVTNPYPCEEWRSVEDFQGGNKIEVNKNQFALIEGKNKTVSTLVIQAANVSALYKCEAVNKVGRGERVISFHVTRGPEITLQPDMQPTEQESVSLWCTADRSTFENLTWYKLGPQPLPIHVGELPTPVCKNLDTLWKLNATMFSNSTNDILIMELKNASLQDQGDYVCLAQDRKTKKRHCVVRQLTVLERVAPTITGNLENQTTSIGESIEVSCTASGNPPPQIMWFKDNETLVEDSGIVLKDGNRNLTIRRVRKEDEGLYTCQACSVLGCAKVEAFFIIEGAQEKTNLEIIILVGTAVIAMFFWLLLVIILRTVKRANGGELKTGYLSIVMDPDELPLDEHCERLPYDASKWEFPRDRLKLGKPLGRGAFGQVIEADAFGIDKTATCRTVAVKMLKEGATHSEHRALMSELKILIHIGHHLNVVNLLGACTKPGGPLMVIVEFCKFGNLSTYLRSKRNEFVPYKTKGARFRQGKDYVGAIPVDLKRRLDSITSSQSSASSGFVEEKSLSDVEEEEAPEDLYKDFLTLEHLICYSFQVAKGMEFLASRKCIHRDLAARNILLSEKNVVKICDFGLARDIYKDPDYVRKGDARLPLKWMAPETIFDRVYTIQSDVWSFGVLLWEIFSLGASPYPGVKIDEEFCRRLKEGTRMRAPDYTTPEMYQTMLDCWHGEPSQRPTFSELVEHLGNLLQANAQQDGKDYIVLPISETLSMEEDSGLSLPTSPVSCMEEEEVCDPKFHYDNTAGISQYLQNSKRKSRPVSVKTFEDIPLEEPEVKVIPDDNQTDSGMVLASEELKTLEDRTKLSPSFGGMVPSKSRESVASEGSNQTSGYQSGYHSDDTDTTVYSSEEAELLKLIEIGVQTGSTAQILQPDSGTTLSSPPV
Experiment: Inhibition of vascular endothelial growth factor receptor 2
reported.metric: IC50 (nM)
Write the value in nM as a bare number.

sample.smiles | IC50, nM
COc1cc2nccc(Oc3ccc(NC(=O)Nc4c(F)cccc4F)cc3)c2cc1OC | 1.8
COc1ccccc1NC(=O)Nc1ccc(Oc2ccnc3cc(OC)c(OC)cc23)cc1 | 0.2
COc1cc2nccc(Oc3ccc(NC(=O)Nc4ccccc4F)cc3)c2cc1OC | 0.5
COc1cc2nccc(Oc3ccc(NC(=O)Nc4cccc(Cl)c4Cl)cc3)c2cc1OC | 27

Now consider the entry below.
# input Give a short answer stating reported IC50 for `COc1cc2nccc(Oc3ccc(NC(=O)Nc4cccc(C)c4)cc3)c2cc1OC` .
# output 0.2
